Test: Volume of distribution at steady state in rat at 3 mg/kg, iv or 10 mg/kg, po
Type: ADME, organism-based
Settings: in vivo, read-out: Vdss
MEASUREMENT_LABEL: Vd (L/kg)
Numbers only, in L/kg.

Entry Cc1ncc(NC(=O)c2cccc(C(F)(F)F)c2)cc1-c1cnc(OC2CCOCC2)c(N2CCOCC2)c1 ; Vd = 3.5

----------
Experiment: Solubility of compound at pH 6.8 by shake-flask assay
Settings: buffer
MEASUREMENT_LABEL: solubility thermodynamic (µM)
One number for each entry, in µM.

Answered cases to consult:
Cc1ccc(NC(=O)c2cccc(C(F)(F)F)c2)cc1-c1cc(N2CCOCC2)c(=O)n(C)c1 = 70
Cc1ncc(NC(=O)c2cccc(C(F)(F)F)c2)cc1-c1cc(N2CCOCC2)c(=O)n(C)c1 = 20

Here's the next entry for you.
Entry Cc1ccc(NC(=O)c2cccc(C(F)(F)F)c2)cc1-c1cc(N2CCOCC2)ncn1 ; solubility thermodynamic = 16

----------
Test: Solubility of compound at pH 6.8 by shake-flask assay
Details: buffer
MEASUREMENT_LABEL: solubility thermodynamic (µM)
Answers are plain numbers, in µM.

Answered cases to consult:
Cc1ncc(NC(=O)c2cccc(C(F)(F)F)c2)cc1-c1cnc(OC2CCOCC2)c(N2CCOCC2)c1 = 200
Cc1ccc(C(=O)Nc2cccc(C(C)(C)C)c2)cc1-c1cc(N2CCOCC2)ncn1 = 20
Cc1ccc(NC(=O)c2cccc(C(F)(F)F)c2)cc1-c1cn(C)c(=O)c(N2CCOCC2)n1 = 190
Cc1ncc(NC(=O)c2ccnc(C(F)(F)F)c2)cc1-c1cc(N2CCOCC2)c(=O)n(C)c1 = 1040

Here's the next entry for you.
Entry Cc1ncc(NC(=O)c2cccc(C(F)(F)F)c2)cc1-c1cnc(OCCO)c(N2CCOCC2)c1 ; solubility thermodynamic = 24

----------
Test: Clearance in mouse at 1 mg/kg, iv or 3 mg/kg, po
Format: ADME, organism-based
Conditions: in vivo
MEASUREMENT_LABEL: clearance (mL/min/kg)
Answers are plain numbers, in mL/min/kg.

Entry Cc1ncc(NC(=O)c2cccc(C(F)(F)F)c2)cc1-c1cnc(OC2CCOCC2)c(N2CCOCC2)c1 ; clearance = 35

----------
Test: Protein binding in mouse plasma
Format: ADME, cell-free
Settings: read-out: PPB (converted)
MEASUREMENT_LABEL: fraction unbound
One number for each entry.

Entry Cc1ncc(NC(=O)c2cccc(C(F)(F)F)c2)cc1-c1cnc(OC2CCOCC2)c(N2CCOCC2)c1 ; fraction unbound = 0.02

----------
Target: RAF proto-oncogene serine/threonine-protein kinase (Homo sapiens)
Sequence (P04049 whole entry): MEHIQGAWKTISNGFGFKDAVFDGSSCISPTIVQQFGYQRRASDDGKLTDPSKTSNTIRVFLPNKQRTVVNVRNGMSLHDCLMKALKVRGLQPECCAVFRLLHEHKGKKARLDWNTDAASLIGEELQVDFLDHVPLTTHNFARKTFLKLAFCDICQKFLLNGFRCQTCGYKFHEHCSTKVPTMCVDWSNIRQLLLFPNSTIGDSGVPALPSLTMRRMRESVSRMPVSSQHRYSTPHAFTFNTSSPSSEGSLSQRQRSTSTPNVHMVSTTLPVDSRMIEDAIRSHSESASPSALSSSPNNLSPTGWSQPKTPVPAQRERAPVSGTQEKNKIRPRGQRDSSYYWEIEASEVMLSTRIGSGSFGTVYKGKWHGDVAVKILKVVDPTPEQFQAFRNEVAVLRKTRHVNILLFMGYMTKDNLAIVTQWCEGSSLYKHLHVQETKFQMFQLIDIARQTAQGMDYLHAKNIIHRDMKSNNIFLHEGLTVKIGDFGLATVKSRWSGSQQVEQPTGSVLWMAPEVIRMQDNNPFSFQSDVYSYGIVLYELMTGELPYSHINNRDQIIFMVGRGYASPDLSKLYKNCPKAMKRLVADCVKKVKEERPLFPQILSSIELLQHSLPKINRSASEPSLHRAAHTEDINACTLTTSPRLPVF
Test: Inhibition CRAF in human Calu6 cells assessed as decrease in MEK phosphorylation after 2 hrs by HTRF method
Can you tell me EC50 for the items I'm about to list?
Write the quantity with the unit trailing the number.

Would you mind listing EC50 for each of the following molecules?
1. Cc1ccc(C(=O)Nc2cccc(C(F)(F)F)c2)cc1-c1cc(N2CCOCC2)ncn1
2. Cc1ncc(NC(=O)c2ccnc(C(F)(F)F)c2)cc1-c1cc(N2CCOCC2)c(=O)n(C)c1
3. Cc1ccc(C(=O)Nc2cccc(C(C)(C)C)c2)cc1-c1cc(N2CCOCC2)ncn1
4. Cc1ccc(NC(=O)c2cccc(C(F)(F)F)c2)cc1-c1cn(C)c(=O)c(N2CCOCC2)n1

["0.7 µM", "3.96 µM", "0.2 µM", "0.2 µM"]

Would you mind listing EC50 for each of the following molecules?
1. Cc1ncc(NC(=O)c2cccc(C(F)(F)F)c2)cc1-c1cc(N2CCOCC2)c(=O)n(C)c1
2. Cc1ccc(NC(=O)c2cccc(C(F)(F)F)c2)cc1-c1ccnc(N2CCOCC2)c1

["0.46 µM", "0.2 µM"]
